Attribution: ChEMBL document CHEMBL2375272

run.description: Drug metabolism in rat liver S9 fraction assessed as oxidative metabolism after 4 hrs by UPLC-UV-PAD method in presence of NADPH
Type: ADME, subcellular
condition.description: read-out: Drug metabolism
property.name: metabolised at 4 h

Q) I have this molecule here, CC(CCN1CCCCC1)c1ccc(-c2ccccc2)cc1.Cl (racemic) , and I need its recorded metabolised at 4 h.
A) 65%

---

run.description: Solubility of the compound in physiological solution by UV spectrophotometric analysis
Assay type: physicochemical
property.name: solubility (µg/mL)
Give bare numbers, in µg/mL.

Q) I have this molecule here, CC(CCN1CCCCC1)c1ccc(-c2ccccc2)cc1.Cl (racemic) , and I need its recorded solubility.
A) 8000
